System Under Test: PI3Kα (Homo sapiens, UniProt P42336)
Construct: Full length p110 subunits of PI3K α, β and δ, N-terminally labeled with polyHis tag; polyHis (N)
Sequence (P42336 whole entry, species assumed): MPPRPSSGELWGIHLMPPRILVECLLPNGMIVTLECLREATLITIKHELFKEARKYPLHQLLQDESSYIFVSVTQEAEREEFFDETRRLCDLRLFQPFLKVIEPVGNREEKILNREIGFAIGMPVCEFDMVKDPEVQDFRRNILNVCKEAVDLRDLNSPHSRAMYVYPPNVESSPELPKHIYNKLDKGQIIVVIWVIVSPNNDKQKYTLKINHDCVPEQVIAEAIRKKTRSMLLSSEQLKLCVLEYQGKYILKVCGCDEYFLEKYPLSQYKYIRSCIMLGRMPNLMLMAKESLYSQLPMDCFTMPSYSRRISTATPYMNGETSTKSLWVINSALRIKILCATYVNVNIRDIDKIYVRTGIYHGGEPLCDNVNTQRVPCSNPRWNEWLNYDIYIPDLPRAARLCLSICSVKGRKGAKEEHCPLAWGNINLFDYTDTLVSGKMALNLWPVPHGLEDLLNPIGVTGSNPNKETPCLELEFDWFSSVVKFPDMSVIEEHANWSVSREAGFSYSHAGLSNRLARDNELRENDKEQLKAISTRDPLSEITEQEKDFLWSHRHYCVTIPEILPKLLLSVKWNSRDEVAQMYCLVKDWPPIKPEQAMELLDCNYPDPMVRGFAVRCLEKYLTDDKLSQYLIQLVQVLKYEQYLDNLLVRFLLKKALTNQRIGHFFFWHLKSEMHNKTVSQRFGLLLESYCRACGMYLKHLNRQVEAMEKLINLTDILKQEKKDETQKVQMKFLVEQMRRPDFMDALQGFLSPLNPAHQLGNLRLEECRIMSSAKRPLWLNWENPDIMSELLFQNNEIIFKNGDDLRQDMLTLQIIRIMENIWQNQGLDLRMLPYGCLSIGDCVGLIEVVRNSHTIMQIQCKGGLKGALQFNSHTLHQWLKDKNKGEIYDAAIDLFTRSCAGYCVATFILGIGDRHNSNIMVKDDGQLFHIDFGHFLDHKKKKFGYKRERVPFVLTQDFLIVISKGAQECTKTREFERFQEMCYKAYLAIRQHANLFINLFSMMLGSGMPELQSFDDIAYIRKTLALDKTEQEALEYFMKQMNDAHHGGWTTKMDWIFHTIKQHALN
Sequence (P27986 whole entry partner, species assumed): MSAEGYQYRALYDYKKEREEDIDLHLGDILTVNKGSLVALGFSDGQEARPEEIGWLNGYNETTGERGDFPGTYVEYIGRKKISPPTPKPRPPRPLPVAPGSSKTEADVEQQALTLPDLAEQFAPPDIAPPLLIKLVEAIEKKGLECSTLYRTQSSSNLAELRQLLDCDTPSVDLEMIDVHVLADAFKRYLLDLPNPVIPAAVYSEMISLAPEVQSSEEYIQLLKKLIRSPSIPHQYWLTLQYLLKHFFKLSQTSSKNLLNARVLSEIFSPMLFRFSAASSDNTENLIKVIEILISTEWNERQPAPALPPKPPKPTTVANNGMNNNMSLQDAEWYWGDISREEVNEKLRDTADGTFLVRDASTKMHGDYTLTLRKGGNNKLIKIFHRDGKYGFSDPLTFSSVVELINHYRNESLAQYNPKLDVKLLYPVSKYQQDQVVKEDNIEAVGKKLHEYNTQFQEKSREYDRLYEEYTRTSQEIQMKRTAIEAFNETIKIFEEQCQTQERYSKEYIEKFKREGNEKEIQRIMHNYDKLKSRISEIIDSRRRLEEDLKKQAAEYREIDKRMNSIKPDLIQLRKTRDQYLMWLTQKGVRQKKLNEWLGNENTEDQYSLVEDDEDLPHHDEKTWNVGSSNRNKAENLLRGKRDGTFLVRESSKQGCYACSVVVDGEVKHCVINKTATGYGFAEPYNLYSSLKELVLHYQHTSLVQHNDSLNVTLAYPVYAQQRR
Run Description: In vitro PI3 kinase enzyme assay (PI3K ATPLoss)
Run Parameters: recombinant p110α/p85, residual ATP by bioluminescence
Task for the reader: assign each of the following compounds its reported pIC50.
Answers are plain numbers, as −log10 of the molar value.

CC(=O)Nc1cn2nc(-c3cncc(NS(=O)(=O)c4ccc(F)cc4)c3)ccc2n1	8.22

Could you report pIC50 for every entry in the following list?
1. COc1ccc(S(=O)(=O)N(C)c2nccc(-c3ccc4nc(NC(C)=O)cn4c3)n2)cc1
2. CC(=O)Nc1cn2nc(-c3cnc(Cl)c(NS(=O)(=O)c4cccc(OC(F)F)c4)c3)ccc2n1

1: 6.84; 2: 8.15

Please supply pIC50 for each of the following items, keeping them in order.
1. CC(=O)Nc1cn2nc(-c3cnc(Cl)c(NS(=O)(=O)c4ccc(C)cc4)c3)ccc2n1
2. CC(=O)Nc1nc2ccc(-c3cnc(Cl)c(NS(=O)(=O)c4ccc(F)cc4)c3)cc2n1-c1ccccn1
3. CC(=O)Nc1nc2ccc(-c3cnc(Cl)c(NS(C)(=O)=O)c3)nn2c1-c1ccc(F)c(C(=O)N2CCOCC2)c1

[8.22, 7.31, 7.03]
